B1: HDV Ribozyme (parent)
chain: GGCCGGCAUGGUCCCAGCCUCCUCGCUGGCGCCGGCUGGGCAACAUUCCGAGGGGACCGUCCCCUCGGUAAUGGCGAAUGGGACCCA

Variants of: B1
protocol.text: self-cleavage, relative activity (ratio to wild type); higher = more cleavage; co-transcriptional
Reported self-cleavage values are given for each entry in this list.

Some solved entries appear below for comparison.
INSERT INTO results (changes, observed_result) VALUES
  ('C33G A78G', 0),
  ('A8U A71U', 0.917),
  ('C57A C75G', 0.0978);

Switching to the query record.
// recorded self-cleavage for C32U A51U : 0.884
